assay: qHTS assay to identify small molecule agonists of the retinoic acid receptor (RAR) signaling pathway (AID 1159553); conditions: C3RL4 RARE luciferase reporter, agonist, 6 h; series mostly up to 73.3 µM
Records with an inconclusive call do not appear. Calls of active or inactive are those of the source. Calls follow the shape of the dose curve; as a rule, active = well fitted activation curve with a large enough effect in the repeat runs; inconclusive = weak or mixed curves, or effect the other way; inactive = no such curve, though single readings can be large or run the other way.
Would you mind answering with one of these outcomes? t for active, f for inactive

Task: Write down the call the test reported for this compound. Item: C1CCCCC1
Result: f

Task: # iterate: Cc1ccc(Cl)cc1N
Result: f

Task: Can you check O=C(O)c1ccc(O)cc1O next?
Result: f

Task: Also check CCC(C)(C)C(=O)O
Result: f

Task: Request: O=C(O)CCC(=O)c1ccc(-c2ccccc2)cc1
Result: t

Task: Another compound to look at: O=C(NC(Cc1cc(=O)[nH]c2ccccc12)C(=O)O)c1ccc(Cl)cc1 (centres undefined)
Result: f

Task: Try this compound too: O=C(O)CO
Result: f

Task: What do you have for CCNc1nc(N)nc(Cl)n1 ?
Result: f

Task: What about this compound? Oc1cccc2[nH]ccc12
Result: f
